MEASURED_ON: HLA-A*31:01
PROTOCOL_TEXT: IEDB peptide-MHC binding, purified MHC/competitive/fluorescence; filed as Kd, often an IC50 or EC50 that approximates it; bounds were set here for any values at or beyond the usual limits of such assays
CONDITIONS_USED: source organism: Entamoeba histolytica HM-1:IMSS

[
  {
    "INPUT_SEQUENCE": "RTFDRFFEE",
    "Kd": "318 nM"
  }
]

----------
MEASURED_ON: HLA-A*02:01
PROTOCOL_TEXT: IEDB peptide-MHC binding, purified MHC/competitive/fluorescence; filed as Kd, often an IC50 or EC50 that approximates it; bounds were set here for any values at or beyond the usual limits of such assays
CONDITIONS_USED: source organism: Reston ebolavirus
pKd: −log10 of the molar value.

[
  {
    "INPUT_SEQUENCE": "RTYSLLNRK",
    "pKd": "≤ 4.70"
  }
]

// data source = the Immune Epitope Database (IEDB)
